The entries below come with measured protein stability index values attached.
B1: EPB41L3 (parent)
chain: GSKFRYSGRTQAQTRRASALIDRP

variants of: B1; assay: protein stability index of a GFP-peptide fusion (GPS, HEK-293T) (PSI 1-6); higher = more stable; conditions: c terminus: a fixed tail appended;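 note: lentivirally expressed fusions sorted by FACS into six bins by GFP to DsRed ratio, PSI derived from sequencing read proportions per bin multiplied by bin number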

# annotated cases, reported protein stability index shown
// field: protein stability index; key: "A17N" ; value = 3.19

// field: protein stability index; key: "P24R" ; value = 3.54

// field: protein stability index; key: "S18E" ; value = 3.62

Next:
// field: protein stability index; key: "L20C" ; value = 3.12

// field: protein stability index; key: "T14S" ; value = 2.67

// field: protein stability index; key: "T10P" ; value = 3.74

// field: protein stability index; key: "S7L" ; value = 3.08

// field: protein stability index; key: "R16F" ; value = 2.9

// field: protein stability index; key: "R16S" ; value = 3.08

Attribution: the supplement of paper PMC10567573
